Would you mind telling me the reported [35S]GTPγS % inhibition max (GRO-α) of each entry?
Molecular target: T1, Human CXCR2 (human, UniProt P25025 1-360)
T1 sequence: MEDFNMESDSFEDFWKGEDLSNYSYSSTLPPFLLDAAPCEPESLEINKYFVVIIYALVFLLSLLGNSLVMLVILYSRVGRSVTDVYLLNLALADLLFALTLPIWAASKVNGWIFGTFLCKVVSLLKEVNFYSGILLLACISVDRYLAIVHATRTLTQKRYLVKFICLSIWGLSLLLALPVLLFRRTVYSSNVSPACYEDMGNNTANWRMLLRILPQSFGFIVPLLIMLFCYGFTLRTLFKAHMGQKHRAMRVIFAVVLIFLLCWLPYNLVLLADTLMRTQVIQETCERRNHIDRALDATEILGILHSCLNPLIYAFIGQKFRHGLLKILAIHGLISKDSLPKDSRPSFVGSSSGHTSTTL
Experiment: cell-based or functional assay
Form entry: value (%) — number only.

// sample 97A9 (VHH, Tested as periplasmic extract (pAX50) and as purified His6-tagged protein (pAX100); also called 097A09; not shown: C-terminal c-myc tag and His6 tag coded by the vector) VHH: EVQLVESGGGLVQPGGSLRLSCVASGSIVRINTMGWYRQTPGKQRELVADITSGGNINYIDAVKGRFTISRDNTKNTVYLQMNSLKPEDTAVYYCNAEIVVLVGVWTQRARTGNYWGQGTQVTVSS , its [35S]GTPγS % inhibition max (GRO-α) was 100

// sample 2B2 (VHH, Tested as periplasmic extract (pAX50) and as purified His6-tagged protein (pAX100); also called 002B02; not shown: C-terminal c-myc tag and His6 tag coded by the vector) VHH: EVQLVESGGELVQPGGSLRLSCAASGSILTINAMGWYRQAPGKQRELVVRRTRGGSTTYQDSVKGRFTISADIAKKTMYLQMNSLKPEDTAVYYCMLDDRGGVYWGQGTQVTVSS , its [35S]GTPγS % inhibition max (GRO-α) was 71.3

// sample 54B12 (VHH, Tested as periplasmic extract (pAX50) and as purified His6-tagged protein (pAX100); also called 054B12; not shown: C-terminal c-myc tag and His6 tag coded by the vector) VHH: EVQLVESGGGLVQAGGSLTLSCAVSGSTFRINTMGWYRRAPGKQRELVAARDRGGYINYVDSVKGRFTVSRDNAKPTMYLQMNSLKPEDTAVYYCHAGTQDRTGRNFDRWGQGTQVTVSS , its [35S]GTPγS % inhibition max (GRO-α) was 71.8

// sample 163E3 (VHH, Tested as periplasmic extract (pAX50) and as purified His6-tagged protein (pAX100); also called 163E03; not shown: C-terminal c-myc tag and His6 tag coded by the vector) VHH: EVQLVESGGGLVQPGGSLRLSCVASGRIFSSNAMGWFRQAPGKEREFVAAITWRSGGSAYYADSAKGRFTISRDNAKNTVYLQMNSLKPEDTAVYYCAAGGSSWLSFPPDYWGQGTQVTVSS , its [35S]GTPγS % inhibition max (GRO-α) was 100

// sample 127D1 (VHH, Tested as periplasmic extract (pAX50) and as purified His6-tagged protein (pAX100); also called 127D01; not shown: C-terminal c-myc tag and His6 tag coded by the vector) VHH: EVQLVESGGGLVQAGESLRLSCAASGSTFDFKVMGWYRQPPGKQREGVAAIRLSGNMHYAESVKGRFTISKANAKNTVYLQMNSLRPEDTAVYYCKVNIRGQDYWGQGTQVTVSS , its [35S]GTPγS % inhibition max (GRO-α) was 66

// sample 163D2 (VHH, Tested as periplasmic extract (pAX50) and as purified His6-tagged protein (pAX100); also called 163D02; not shown: C-terminal c-myc tag and His6 tag coded by the vector) VHH: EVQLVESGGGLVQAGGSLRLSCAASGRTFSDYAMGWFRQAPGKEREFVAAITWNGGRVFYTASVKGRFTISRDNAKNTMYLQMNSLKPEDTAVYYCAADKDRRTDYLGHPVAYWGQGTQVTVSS , its [35S]GTPγS % inhibition max (GRO-α) was 100
